Tested on: Pseudomonas aeruginosa ATCC 27853
Type: cell-based
condition_parameters: ATCC 27853, pH 7.4
Non-standard residues stand in square brackets, D forms with d. Residues, ends and D or L forms follow the SMILES beside them. *: point of attachment. Palmitoyl = CCCCCCCCCCCCCCCC(=O)*
value_type: Minimal Inhibitory Concentration, P. aeruginosa ATCC 27853

{"columns": ["compound", "test_system", "observed"],
 "data": [
  ["NCCCC[C@@H](N)C(=O)NCC(=O)NCC(=O)NCC(=O)N[C@H](CCCCN)C(=O)NCC(=O)NCC(=O)NCC(=O)N[C@H](CCCCN)C(=O)NCC(=O)NCC(=O)N[C@H](CCCCN)C(N)=O [DK4G8, reference compound] (H-[dK]GGG[dK]GGG[dK]GG[dK]-NH2; N-terminus assumed)", "Pseudomonas aeruginosa ATCC 27853", ">100 µM"],
  ["CCCCCCCCCCCCCCCC(=O)N[C@@H](CCCCN)C(=O)N[C@@H](C)C(=O)N[C@H](C)C(=O)N[C@@H](CCCCN)C(N)=O [PA-KAAK, Palmitoyl-Lys-Ala-D-Ala-Lys-NH2] (Palmitoyl-KA[dA]K-NH2)", "Pseudomonas aeruginosa ATCC 27853", "100 µM"],
  ["CCCCCCCCCCCCCCCC(=O)N[C@@H](CCCCN)C(=O)N[C@H](C(=O)N[C@@H](C(=O)N[C@@H](C(=O)N[C@@H](CCCCN)C(=O)N[C@H](C(=O)N[C@H](C(=O)N[C@@H](C(=O)N[C@@H](CCCCN)C(=O)N[C@@H](C(=O)N[C@H](C(=O)N[C@@H](CCCCN)C(N)=O)C(C)C)C(C)C)C(C)C)C(C)C)C(C)C)C(C)C)C(C)C)C(C)C [lipopeptide 7] (Palmitoyl-KV[dV][dV]KVV[dV]K[dV]VK-NH2)", "Pseudomonas aeruginosa ATCC 27853", ">100 µM"],
  ["CCCCCCCCCCCCCCCC(=O)N[C@@H](CCC(=O)O)C(=O)N[C@@H](CCCCN)C(=O)N[C@H](CCCCN)C(=O)N[C@@H](CCCCN)C(N)=O [PA-EKKK, Palmitoyl-Glu-Lys-D-Lys-Lys-NH2] (Palmitoyl-EK[dK]K-NH2)", "Pseudomonas aeruginosa ATCC 27853", ">100 µM"]
]}
